# experiment: folding stability dG unfold from trypsin proteolysis; higher = more stable
observable: folding stability dG unfold (kcal/mol)
Please state the figure in kcal/mol; there is no need to write the unit.

In the examples that follow, each entry is paired with its recorded folding stability dG unfold.
>>> df
                               residuecodes  reportedmeasurement
0  SAGGSAGGSLSDLPPGVELIAVGDDVVAVRRPDGSVLVFVRERDRVFVRELSPDVSIEEALADSAGGSAGGS [r12_605_TrMRF]                 1.32
1  SAGMEAIRKKAEELAKKGKIFKITLTGPDGIPETKILSPEEFKKFLEEFPDPEAIASVEVEAYEPGKPISAG [r5_957_JUSTAS]                 2.35
2  SAGGSAKKPEVTVEIEIVLPKEELEELLEALRKLPGLKVEVEEVEVREDGYVRVKLRITLPPGVKPSAGGSA [r15_441_TrROS_Hall]                 2.39
3  SAKVSHLEFSLPNSVVTPEDLLAALEKLGFPPSKIKKMEIVKVKDNSYVVKIYLENEDGSDSIITLHLPSAG [r14_30_TrMRF]                0.515

Give recorded folding stability dG unfold. SAGGSAGGSAGMLPLEELLKKNPKPIKVLVKVGDTEYLVEVTPGEKKYTIKVKPLKKSKPSAGGSAGGSAGG [r11_549_TrMRF]
1.08

Give recorded folding stability dG unfold. SAGGSAGGSAGGSKKKVLYIKIDVKPNMTPEEVAKLLQEKFGVKIKKVEVENGYLKIYFSAGGSAGGSAGGS [r4_469_TrROS_Hall]
2.82

Give recorded folding stability dG unfold. SAGGMTVTVPREGPVTEEDVEKIAAELAAQGLKEVPLVVIETEKGSLPDGRPTELVRERTYYYEYPESAGGS [r16_44_JUSTAS]
-0.307

Give recorded folding stability dG unfold. SAGGSAGGSIRRDENGNFRVRIKVRFPGNGRKRTIEIPFDNATLEEIRKQAIDHGIRPIEIIPSAGGSAGGS [r12_792_TrROS]
0.993

Give recorded folding stability dG unfold. SAGGSAGGSMSTSLSLSSAPGVSVVTTAHPDSTVVTEQPPDGSRVVRVLDPAGELVAEEAVAPSAGGSAGGS [r12_471_JUSTAS]
-0.623

Give recorded folding stability dG unfold. SAGGSAGGSAGGKEYKLVKVKVKVEITLPKGSELLKKLGLSEEDVKFEFELEVVVLVKPSAGGSAGGSAGGS [r10_82_TrROS_Hall]
2.82

Give recorded folding stability dG unfold. SAGGSAGGSSMLTITKTYTLPPEEIKKIEGKPGVLKVEPFVTPEGKLVVKVEIRLEIGPEKLLLSAGGSAGG [r6_155_JUSTAS]
0.738

Give recorded folding stability dG unfold. SAGGKKIRIVMTEEEIKKLAEALAKELNVEVKIVKVEKKTVFDKNGKPVKTYVVVEIEVKKLPPGVKLSAGG [r13_943_TrROS_Hall]
1.3

Give recorded folding stability dG unfold. SAGGSPPDKWVTLPFTMRYPDNGLEVEVNIVINPDDGKIQVEMEVYDNGKPKQEVPATIPADEIKLSAGGSA [r2_188_TrROS]
0.639

Give recorded folding stability dG unfold. SAGGSAGGSSMKVEVTVEPVDPARGLYRVTITLYDPNSDTPLKTVPVLAESPEEIEAAILELLSAGGSAGGS [r12_26_JUSTAS]
2.55
